# Tested on: SF-268 CNS
# test: NCI tumour cell line growth inhibition, 48 h
measurementName: TGI

Which TGI is listed for Fc1ccc(Oc2nccc(-c3c(-c4ccc(F)cc4)ncn3C3CCNCC3)n2)cc1 ?
> 25 µM

Record request: TGI value, item COC(=O)COc1ccc(/C=C2\N=C(c3ccccc3)N(c3cc(C(F)(F)F)ccc3Cl)C2=O)cc1
> 100 µM

Returns the measured TGI for the input compound. Input: COc1ccc2c(c1)c(=O)c1c(NCCCN(C)CCCNc3ccc4c(=O)n(CCN(C)C)c(=O)n5c6ccc(OC)cc6c(=O)c3c45)ccc3c(=O)n(CCN(C)C)c(=O)n2c31
1.88 µM

What value of measured TGI is listed for Nc1nc2cc(CNc3ccc(C(=O)O)cc3)ccc2nc1-c1ccccc1 ?
> 100 µM

I would be grateful if you could share the reported TGI for CC(=O)[CH-]C(=O)c1ccccc1.CC(=O)[CH-]C(=O)c1ccccc1.CC(=O)[CH-]C(=O)c1ccccc1.[Tl+3] .
> 100 µM

What measured TGI goes with Cc1cccc(C)c1NC(=O)CCCC(=O)CC(=O)/C=C/c1ccccc1 ?
> 100 µM

Returns the measured TGI for the input compound. Input: Cc1cc(O)c(C(=O)CC2(O)C(=O)Nc3c(Cl)cc(Cl)cc32)c(=O)o1 (stereo not given)
> 100 µM

Data request, read-out TGI, for Nc1ccccc1/C=C\c1ccccc1
> 100 µM

Give the measured TGI of COc1ccc(/C=C2\Sc3nnc(C)n3N=C2c2cc(F)c(Cl)cc2Cl)cc1OC .
50.9 µM

Which value of TGI has been reported for NCCCN(CCCN)CCCNCc1c2ccccc2c(CNCCCN(CCCN)CCCN)c2ccccc12 in the records?
57.7 µM

# query: TGI of entry CC([C@H]1CCC2C3CCC4C[C@@H](NC=O)CC[C@]4(C)C3CC[C@@]21C)N(C)C (stereo not given in full)
3.93 µM

# query: TGI of entry O=c1c(/C=C/c2c(O)ccc3ccccc23)nnc2sc(-c3cccc([N+](=O)[O-])c3)nn12
89.8 µM

Query: TGI; subject: CC(=O)N1CC(C)(C)c2c1cc(C)c(O)c2C
> 100 µM

Need TGI of [N-]=[N+]=C(C(=O)OCC#CCOC(=O)C(=[N+]=[N-])S(=O)(=O)c1ccccc1)S(=O)(=O)c1ccccc1 , thanks.
> 10 µM

Need TGI, item O=C(O)CCC(C(=O)O)N1C(=O)c2ccccc2C1=O (stereo not given)
> 100 µM

I'd like to know its TGI. The compound in question is CCOC(=O)CN=C1Nc2ccccc2C(=O)N2CSCC12 (stereo not given)
> 100 µM

Which TGI is reported for this compound? Cc1ccc(S(=O)(=O)NC(=O)NC(Cc2ccccc2)C(=O)O)cc1 (stereo not given)
> 100 µM

Would you mind telling me what TGI value was observed for COC(=O)c1c(O)ccc2c1c1c(n2Cc2ccc(OC)cc2)C(=O)c2ccccc2C1=O ?
55 µM

Find the recorded TGI belonging to COc1cc(CCNC2=CC(=O)c3cccnc3C2=O)ccc1O and report it.
7.7 µM

Consider the compound shown here: CN1[C@@H]2CCCC[C@H]2N(C)P1(=O)C(O)/C=C/c1ccccc1 (stereo not given in full) What is its recorded TGI?
> 100 µM

Value source: PubChem BioAssay (NCI)
